Attribution: the supplement of paper PMC10065799

system_name: SHP2-C SH2
test: SH2 binding enrichment of the phosphorylated peptide, bacterial display (enrichment ratio); higher = better substrate or ligand; peptides without Tyr show the background;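 further: peptide library displayed on the E. coli surface as eCPX fusions, selected cells deep-sequenced, score is each peptide's frequency after selection divided by its frequency in the input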
endpoint_label: SH2 binding enrichment
// return just the number, without any unit appended

Req: Need SH2 binding enrichment of GDLTDYLMKIL [ACTA1_Y190_R185G] , thanks.
Resp: 1.19

Req: Form field: reported SH2 binding enrichment of LAIERYVVVSK [RHO_Y136_C140S]
Resp: 1.33

Req: # SH2 binding enrichment lookup, item KALKQYRASPS [DDX27_Y763_G766S]
Resp: 0.691

Req: # get_value(readout='SH2 binding enrichment', item= SLESAYPEGSQ [TTF1_Y357] )
Resp: 0.814

Req: What does the record list as SH2 binding enrichment for TSSAVYMNLAS [GATAD2B_Y317_I316V] ?
Resp: 1.78

Req: Param item = TLSGIYQYSIA [FOXL2_Y81_I84S] ; retrieve measured SH2 binding enrichment.
Resp: 1.83

Req: Consider the sequence WDLPEYSFKDP [ITGA3_Y237_S235P_YF] and give its measured SH2 binding enrichment.
Resp: 1.04

Req: Which SH2 binding enrichment value belongs to FCRITYDIFPF [INTS13_Y67_M66T_YF] ?
Resp: 0.853

Req: Could you share which SH2 binding enrichment value was measured for AAVNGYAFGGG [ECHS1_Y137] ?
Resp: 0.647

Req: Which measured SH2 binding enrichment value corresponds to KTDKKYLMIEE [BAG3_Y451] ?
Resp: 0.573

Req: Request the reported SH2 binding enrichment associated with RRIHSYRGHVW [VHL_Y112_L116V]
Resp: 0.25

Req: // query SH2 binding enrichment value for entry FNNPAYFVLEG [INPPL1_Y986_YF]
Resp: 0.953

Req: Quick one: SH2 binding enrichment for FDDIAYIQKTL [PIK3CA_Y1021_R1023Q] ?
Resp: 0.939

Req: Quick one: SH2 binding enrichment of LNPVVYTLRNA [OR4C12_Y285] ?
Resp: 1.37

Req: Bench note: what SH2 binding enrichment did PGPQSYPIVTG [PAX5_Y299] show?
Resp: 0.861

Req: Consider the sequence shown here: ESKKHYGFSLF [ANXA3_Y295_F291S_YF] What is its recorded SH2 binding enrichment?
Resp: 0.717

Req: Please look up its SH2 binding enrichment: TDHLRYFDSNK [ARAP1_Y359]
Resp: 0.714

Req: Query: SH2 binding enrichment; subject: ATPKGYEPDAS [OTC_Y223]
Resp: 1.02

Req: Name the recorded SH2 binding enrichment for AELVQYYMEHH [PTPN11_Y80] .
Resp: 1.13

Req: Fill in the blank: the reported SH2 binding enrichment of FRSSLYSLMET [MYO5C_Y633_L634S] is ____.
Resp: 0.564

Req: Which SH2 binding enrichment is listed for ITLPIYTKESE [ANK2_Y1455] ?
Resp: 0.72

Req: So what does the record say about SH2 binding enrichment for GFKVRYATGSI [FGFR1_Y210_W213G_YF] ?
Resp: 1

====

Please respond with reported SH2 binding enrichment for every item in the list.
system_name: Grb2 SH2 (UniProt P62993)
Sequence (P62993 whole entry, looked up): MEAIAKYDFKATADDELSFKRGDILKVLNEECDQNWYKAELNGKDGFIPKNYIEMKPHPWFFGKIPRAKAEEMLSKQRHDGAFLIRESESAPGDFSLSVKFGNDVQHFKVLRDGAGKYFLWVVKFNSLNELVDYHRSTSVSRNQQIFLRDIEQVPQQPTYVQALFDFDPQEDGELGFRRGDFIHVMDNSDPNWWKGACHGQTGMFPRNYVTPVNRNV
test: SH2 binding enrichment of the phosphorylated peptide, bacterial display (enrichment ratio); higher = better substrate or ligand; peptides without Tyr show the background
Answer with the value's number alone.

Req: GET /values?readout=SH2 binding enrichment&item= GDFFRSLAEVA [YWHAG_Y133_Y133S_YF]
Resp: 0.913

Req: Returns the measured SH2 binding enrichment for the input sequence. Input: GIVEDYRPRFF [ACVRL1_Y421_P424R_YF]
Resp: 0.985

Req: Could you share which SH2 binding enrichment value was measured for YGSSSYRGAGG [RPA2_Y14_G15R] ?
Resp: 0.877

Req: Form field: reported SH2 binding enrichment of CTTIHHNYMCN [TP53_Y234_Y234H]
Resp: 1.01

Req: What value of measured SH2 binding enrichment is listed for LEDEVYAQKMK [TPM2_Y261] ?
Resp: 0.953

Req: SH2 binding enrichment for NFSKMYCNPDA [KNL1_Y489_A486S_YF] ?
Resp: 0.751

Req: What SH2 binding enrichment value was documented for this sequence, EQQRAYLEGTC [HLA-C_Y183_L180Q] ?
Resp: 0.916

Req: Would you kindly share the measured SH2 binding enrichment for KAEELYIGVTV [EFHC2_Y509] ?
Resp: 0.648

Req: What value of SH2 binding enrichment has been reported for the following sequence? RTLTHYKSAVK [ASNS_Y555]
Resp: 0.934

Req: Recorded SH2 binding enrichment for EREYKYGAHNY [OAT_Y50] , please?
Resp: 0.927

Req: Query: SH2 binding enrichment; subject: PTTMTYFPHFD [HBA1_Y43_K41M]
Resp: 1.13

Req: // lookup SH2 binding enrichment for QSMEPYTKQQL [STAT3_Y640_V637M]
Resp: 0.887

Req: Recorded SH2 binding enrichment for PSQRRNVFFFS [PTEN_Y174_Y174N_YF] , please?
Resp: 0.769

Req: # query: SH2 binding enrichment of entry QNTGDDYDLYG [PTPN11_Y62_Y62D]
Resp: 0.92

Req: I'd like to know its SH2 binding enrichment. The sequence in question is KDDEKYLDVIR [MTM1_Y260]
Resp: 0.874
